Tested on: PC-3 prostate
Experiment description: NCI-60 one-dose screen, 48 h (100 = growth as untreated, 0 = no growth, -100 = all killed)
Assay context: 10 µM unless noted
The panel holds about 83,000 compounds, 20% with a hit somewhere; the sample as a whole holds those more often.
Answer each item with its documented growth.
Numbers only, in %.

A selection of reference data follows.
[
  {
    "Compound": "O=C(Cc1c(F)cccc1Cl)Nc1ccc(S(=O)(=O)Nc2ncccn2)cc1",
    "growth (%)": 100
  },
  {
    "Compound": "O=C(Nc1ccc(F)c(Cl)c1)c1n[nH]c(=O)c2ccccc12",
    "growth (%)": 112
  },
  {
    "Compound": "O=C(/C=C/CN1CCOCC1)Nc1cc2c(Nc3cccc(Cl)c3F)ncnc2cc1OCCOC(F)F",
    "growth (%)": 58.9
  }
]

Batch of 7 compounds: report growth for each.
1. Cc1cc(Nc2nc(-c3ccncc3)nc3ccccc23)n[nH]1
2. CN(C)c1ccc(-c2ccc(-c3ccc(C(=N)N)cn3)o2)cc1
3. Cc1ccc(OCCn2c(C)nn(-c3ccc(Cl)cc3)c2=O)cc1
4. CCN(CC)CCSc1c2ccc(Cl)cc2nc2ccc(OC)cc12
5. COc1cc(/C=C/C(=O)c2ccc(NC(=O)CN3CCN(c4cc5c(cc4F)c(=O)c(C(=O)O)cn5C4CC4)CC3)cc2)cc(OC)c1OC
6. Cn1cc(C=O)c2ccccc21
7. CC(=O)N1Cc2ccccc2C(C)Cc2cc(Cl)ccc21 (stereo not given)

Result:
1: 61; 2: 7.95; 3: 92.4; 4: 91.4; 5: 21.5; 6: 83.4; 7: 95.8

====

Answer each item with its documented growth.
System: MDA-MB-435 melanoma
Experiment description: NCI-60 one-dose screen, 48 h (100 = growth as untreated, 0 = no growth, -100 = all killed)
Assay context: 10 µM unless noted
Experimental: Growth inhibition of the MDA-MB-435 human Melanoma tumor cell line is measured as a screen for anti-cancer activity. Cells are grown in 96 well plates and exposed to the test compound for 48 hours. Compounds are tested at a single concentration, which is 10^-5 M for most compounds. The reported endpoint is percent growth (GI% or GIPRCNT), where numbers from 0 - 100% represent growth inhibition, and numbers from -100% - 0 represent cell death. […]
About 83,000 compounds went through this panel and 20% of them were active in at least one assay; those are over-represented in the sample as a whole. Activity calls are given as the source filed them. The calls were made as follows: active = growth percent below 10; inactive = the rest.

A selection of reference data follows.
[
  {
    "Molecule": "CN(C)c1ccc(C2CC(c3ccccc3)=NN2/C=C2\\SC(=O)NC2=O)cc1 (stereo unspecified)",
    "Result value": "83.1% (inactive)"
  },
  {
    "Molecule": "Nc1c(C(=O)Nc2ccccc2)sc2nc3c(cc12)CN(Cc1ccccc1)CC3",
    "Result value": "52.1% (inactive)"
  },
  {
    "Molecule": "CC(C)(C)c1ccc(S(=O)(=O)Oc2ccc3c4c(c(=O)oc3c2)CCCCC4)cc1",
    "Result value": "11.9% (inactive)"
  },
  {
    "Molecule": "Clc1nc2ccccc2nc1CI",
    "Result value": "89.2% (inactive)"
  },
  {
    "Molecule": "Cc1ccc(S(=O)(=O)OC2COCOC2C(OS(=O)(=O)c2ccc(C)cc2)C2OCOCC2OS(=O)(=O)c2ccc(C)cc2)cc1 (stereo unspecified)",
    "Result value": "108% (inactive)"
  },
  {
    "Molecule": "COc1cc(-c2n[nH]nc2-c2ccc3c(c2)OCCO3)cc(OC)c1OC",
    "Result value": "-11.4% (active)"
  }
]

Batch of 5 molecules: report growth for each.
1. O=S(=O)(c1ccccc1)n1ccc(-c2ccc3c(c2)CCO3)n1
2. CCN(CC)CCCNc1nc(C)cc(Nc2ccc3nc(C)cc(N)c3c2)n1
3. CC1CCc2c(sc(NC(=O)CSc3nnc4ccccn34)c2C(N)=O)C1 (stereo unspecified)
4. CN1CCN(c2ccc3cc(-c4nc5ccccc5[nH]4)c(=O)oc3c2)CC1
5. Cc1ccc2nc(-c3c(CCCO)noc3N)[nH]c(=O)c2c1

Result:
1: 104% (inactive); 2: 103% (inactive); 3: 99% (inactive); 4: 99.5% (inactive); 5: 110% (inactive)

====

Test system: SNB-75 CNS
Experiment description: NCI-60 one-dose screen, 48 h (100 = growth as untreated, 0 = no growth, -100 = all killed)
Assay context: 10 µM unless noted
This is part of a sample that, as a whole, favours compounds with a hit. Of some 83,000 tested, about 20% had one in any assay.
Quantity name: growth (%)
Give bare numbers, in %.

[
  {
    "Smiles entry": "O=C(Nc1ccc(OCc2nnc(-c3ccc(Cl)cc3)o2)c(F)c1)Nc1ccc(Cl)c(Cl)c1",
    "Study target": "SNB-75 CNS",
    "Quantity name": "growth",
    "Value units": "%",
    "Result value": 6.81
  },
  {
    "Smiles entry": "Cc1cc(C)c(NC(=O)c2sc3nc4c(cc3c2N)CN(Cc2ccccc2)CC4)c(C)c1",
    "Study target": "SNB-75 CNS",
    "Quantity name": "growth",
    "Value units": "%",
    "Result value": 7.64
  },
  {
    "Smiles entry": "C[C@]12CC[C@@H]3c4cc(O)c(O)cc4CC[C@H]3[C@@H]1CC[C@@H]2O",
    "Study target": "SNB-75 CNS",
    "Quantity name": "growth",
    "Value units": "%",
    "Result value": -14.5
  },
  {
    "Smiles entry": "Clc1ccc(/C=C/c2nc(N3CCOCC3)c3nc(Cl)c(Cl)cc3n2)cc1",
    "Study target": "SNB-75 CNS",
    "Quantity name": "growth",
    "Value units": "%",
    "Result value": 94.3
  }
]

Kindly review the next compound as well.
Q: Given the entry `CCN(C(=O)c1cc2ncccc2[nH]1)[C@H]1CCC[C@@H](NCc2cccc(F)c2)C1` , report its measured growth.
Result: 88

====

System: M14 melanoma
Experiment description: NCI-60 one-dose screen, 48 h (100 = growth as untreated, 0 = no growth, -100 = all killed)
Assay context: 10 µM unless noted
This is part of a sample that, as a whole, favours compounds with a hit. Of some 83,000 tested, about 20% had one in any assay.
Please mark criterion met if the recorded growth is equal to or greater than 30%, and criterion not met if it falls below.

# count of solved cases: 6
[
  {
    "Molecule": "O=C(CCl)NCCNc1nccc(Nc2ccc(S(=O)(=O)Nc3ccccn3)cc2)n1",
    "Label value": "criterion not met"
  },
  {
    "Molecule": "COC(=O)C(CC(=O)c1ccc(-c2ccccc2)cc1)c1ccccc1 (centres undefined)",
    "Label value": "criterion met"
  },
  {
    "Molecule": "C#CCC1(c2ccc(F)c(F)c2)NS(=O)(=O)c2ccccc21 (centres undefined)",
    "Label value": "criterion met"
  },
  {
    "Molecule": "O=S(=O)(NCCCNc1cc(-c2cn(-c3ccccc3)nc2-c2cccc(O)c2)ccn1)c1ccc(C(F)(F)F)cc1",
    "Label value": "criterion not met"
  },
  {
    "Molecule": "O=C(/C=C/CN1CCCCC1)Nc1cc2c(Nc3ccc(F)c(Cl)c3F)ncnc2cc1OCCOC(F)F",
    "Label value": "criterion met"
  },
  {
    "Molecule": "CCN(Cc1ccccc1)c1ccc(SC#N)cc1",
    "Label value": "criterion met"
  }
]

Q: Decide: growth of `COc1ncc(-c2ccc3ncnc(Nc4cccc(Cl)c4)c3c2)cc1NS(=O)(=O)C1CC1` >= 30%?
Result: criterion met

Q: Query O=C(Nc1ccccc1)OCC1OCOC(COC(=O)Nc2ccccc2)C1OC(=O)Nc1ccccc1 (centres undefined) next
Result: criterion not met

Q: Query COC1=CC(c2ccc[nH]2)=N/C1=C\c1[nH]c(C)c(CCCn2cc(CCCCCCCCC[C@@H]3Cc4cc(O)ccc4C4CC[C@]5(C)[C@@H](O)CC[C@H]5C43)nn2)c1C (some centres undefined) next
Result: criterion met

====

System: HT29 colon
Experiment description: NCI-60 one-dose screen, 48 h (100 = growth as untreated, 0 = no growth, -100 = all killed)
Assay context: 10 µM unless noted
The panel holds about 83,000 compounds, 20% with a hit somewhere; the sample as a whole holds those more often.
Please mark yes (1) if the recorded growth is equal to or greater than 50%, and no (0) if it falls below.

[
  {
    "Compound": "CCCCCCCN(CCCCCCC)C(=N)c1ccc(OC)c2ccccc12",
    "Label value": "no (0)"
  },
  {
    "Compound": "CC(CCc1ccccc1)NC(=O)c1n[nH]c(=O)c2ccccc12 (stereo unspecified)",
    "Label value": "yes (1)"
  },
  {
    "Compound": "CCOC(=O)[C@H](CSSc1ncnc2cc[nH]c12)NC(=O)[C@@H](C)c1ccc2cc(OC)ccc2c1",
    "Label value": "no (0)"
  },
  {
    "Compound": "COC(=O)c1ccc(C)cc1",
    "Label value": "yes (1)"
  },
  {
    "Compound": "Cc1ccc2c(c1)ncn2-c1ncnc2c1CC(C)c1ccccc1N2C (stereo unspecified)",
    "Label value": "no (0)"
  }
]

Q: Decide: growth of COc1cc(C2C=C(C)N=C3SC=CN32)cc(OC)c1OC (stereo unspecified) >= 50%?
Result: yes (1)

Q: Query `NS(=O)(=O)c1ccc(NCC(=O)Nc2ccc(-c3nc4ccccc4s3)cc2)cc1` next
Result: yes (1)

Q: Query COc1cc(/C=C2\CCCC3=C2N=C2SC(C)=NN2C3c2cc(OC)c(OC)c(OC)c2)cc(OC)c1OC (stereo unspecified) next
Result: no (0)

Q: Query `CN(C)c1ncc(-c2ccc(C(F)(F)F)cc2)c(NC2CCCCCC2)n1` next
Result: no (0)

Q: Query `CC(=O)Nc1ccc2c(c1)/C(=C\C=C/c1ccc([N+](C)(C)C)cc1)c1ccccc1-2` next
Result: yes (1)

Q: Query `CCC(=O)Oc1ccc2c(c1)CC[C@@H]1[C@@H]2CC[C@]2(C)C[C@H](OC(=O)CC)C[C@@H]12` next
Result: yes (1)

Q: Query `C=C1C(=O)O[C@H]2[C@H]1CC/C(COC(=O)NCc1cc(OC)cc(OC)c1)=C\CC[C@@]1(C)O[C@@H]21` next
Result: no (0)

Q: Query `CNC(=O)c1cc(Oc2ccc3c(c2)sc2nc(-c4ccc(Cl)cc4)cn23)ccn1` next
Result: yes (1)
